Entry source: patent US20060019967A1

molecular target: UniProtKB P26663; assay type: biochemical
Sequence (P26663 1027-1206, other chains not shown): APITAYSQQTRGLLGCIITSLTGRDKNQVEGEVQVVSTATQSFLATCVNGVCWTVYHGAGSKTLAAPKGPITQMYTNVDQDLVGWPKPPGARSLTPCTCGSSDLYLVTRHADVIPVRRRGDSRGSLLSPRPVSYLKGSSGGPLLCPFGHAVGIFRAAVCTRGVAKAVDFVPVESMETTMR
value_kind: inhibition of the proteolytic activity of HCV NS3 protease

>>> readout_value("Cc1cc(S(=O)(=O)c2c([N+](=O)[O-])cc(C(F)(F)F)cc2[N+](=O)[O-])c(Cl)cc1Cl")
"effectively inhibited"
>>> readout_value("O=C(CC1=NCCS1)c1cccs1")
"effectively inhibited"
>>> readout_value("CN(C)/C=C(/C(=O)c1cccs1)c1nnnn1-c1ccccc1")
"effectively inhibited"
>>> readout_value("CCOC(=O)C(=CNc1ccc(S(=O)(=O)c2ccc(NC=C(C(=O)OCC)C(=O)OCC)cc2)cc1)C(=O)OCC")
"effectively inhibited"
>>> readout_value("CCOC(=O)/C(C#N)=C/Nc1ccc(S(=O)(=O)c2ccc(N/C=C(\\C#N)C(=O)OCC)cc2)cc1")
"effectively inhibited"
